Can you tell me inhibition at 10 µM for the items I'm about to list?
biological target: PNCK Nano-luciferase fusion (Homo sapiens); construct: host or cells: HEK293; assay: NanoBRET Target Engagement Intracellular Kinase Assay, cell-based PNCK binding screen and dose response in HEK293 cells; details: compound 10uM; HEK293; K10 tracer 1uM; normalized to staurosporine and DMSO; read-out: Avg. Normalized % Inhibition, 10uM, Nanobret
Sequence (Q6P2M8 whole entry, the tested form may be a part): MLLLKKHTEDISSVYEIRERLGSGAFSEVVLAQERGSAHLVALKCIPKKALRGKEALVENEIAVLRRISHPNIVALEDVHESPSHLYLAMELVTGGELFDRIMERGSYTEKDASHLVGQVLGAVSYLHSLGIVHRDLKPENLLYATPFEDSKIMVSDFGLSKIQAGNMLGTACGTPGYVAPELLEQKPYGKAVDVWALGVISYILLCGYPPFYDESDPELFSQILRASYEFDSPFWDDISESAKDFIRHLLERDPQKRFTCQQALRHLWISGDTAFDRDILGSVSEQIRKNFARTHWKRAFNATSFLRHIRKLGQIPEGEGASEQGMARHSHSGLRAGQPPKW
Write the number in % without appending the unit.

q: Give inhibition at 10 µM for the following molecule: N#Cc1cnc(Sc2nnc(-c3ccccc3)o2)cn1
a: 55.6

q: Give inhibition at 10 µM for the following molecule: O=c1[nH]c(CSc2ccc3ccccc3n2)nc2ccccc12
a: 54.5

q: Give inhibition at 10 µM for the following molecule: O=C(O)c1ccc(F)c(S(=O)(=O)Nc2ccc(-c3cnco3)cc2)c1
a: 0

q: Give inhibition at 10 µM for the following molecule: O=c1[nH]c(CSc2nc3ccccc3o2)nc2ccc(Cl)cc12
a: 74.7

q: Give inhibition at 10 µM for the following molecule: CCc1nc(N)nc(SCCCn2c(=O)[nH]c3ccccc32)n1
a: 37.8

q: Give inhibition at 10 µM for the following molecule: O=C(O)Cc1cc(C2CCN(C(=O)Cc3n[nH]c4ccccc34)CC2)[nH]n1
a: 6.89

q: Give inhibition at 10 µM for the following molecule: Cc1cc(C)n2nc(SCc3nc(-c4ccccc4)no3)nc2n1
a: 49.3

q: Give inhibition at 10 µM for the following molecule: CN(CC(=O)NC(C)(C)C)Cn1nc2c3c(cccc31)C(=O)c1ccccc1-2
a: 33.3

q: Give inhibition at 10 µM for the following molecule: COc1ccc(Cl)c(S(=O)(=O)Nc2ccc(OCC(=O)O)cc2)c1
a: 18.9

q: Give inhibition at 10 µM for the following molecule: N#Cc1cnc(Sc2nnc(-c3cccc4ccccc34)o2)cn1
a: 100

q: Give inhibition at 10 µM for the following molecule: Cc1nc2c(c(=O)[nH]1)CCN(Cc1cc3ccccc3n(C)c1=O)CC2
a: 46.3

q: Give inhibition at 10 µM for the following molecule: COc1ccc(C(=O)/C=C/c2n[nH]c3cc(C(=O)O)ccc23)c(F)c1
a: 0

q: Give inhibition at 10 µM for the following molecule: Cc1ccc(F)c(S(=O)(=O)Nc2ccc(-c3nn(C)cc3C(=O)O)cc2)c1
a: 17.6

q: Give inhibition at 10 µM for the following molecule: Cn1cnn(CN2CCN(c3ccc(O)cc3)CC2)c1=S
a: 16.9

q: Give inhibition at 10 µM for the following molecule: O=c1[nH]c(CSc2ncccn2)nc2ccc(Cl)cc12
a: 23.6

q: Give inhibition at 10 µM for the following molecule: C[C@@H]1CCc2c(sc(NC(=O)c3ccc(Cl)s3)c2C(N)=O)C1
a: 97.6

q: Give inhibition at 10 µM for the following molecule: O=c1[nH]c2ccccc2n2c(SCCCn3c(=O)[nH]c4ccccc43)nnc12
a: 45.5

q: Give inhibition at 10 µM for the following molecule: Cc1cc(C)n2nc(SCc3nc4ccccc4s3)nc2n1
a: 61.2

q: Give inhibition at 10 µM for the following molecule: CC1CCc2c(sc(NC(=O)CSc3ncnc4[nH]cnc34)c2C(N)=O)C1 (centres unmarked)
a: 91.8

q: Give inhibition at 10 µM for the following molecule: O=C(O)c1ccc(-c2nc(O)c3c4c(sc3n2)CCCC4)cc1
a: 14.2

Data provenance: paper PMC10249896
